measurement_kind: melting point

Please review the entries below; each comes with its answer.
Request: Tell us which melting point value is on record for `O=C1CCC(=O)C1C(=O)c1ccc(Cl)cc1Cl`
Result: 109 to 113 °C

Request: Find the measured melting point of `COc1ncc(CNc2ccccc2C(=O)Nc2cccc(C(F)(F)F)c2)cc1Br` and report it.
Result: 110 to 111 °C

Request: Write down melting point measured for item `CCc1noc(-c2cn(-c3ccccn3)cn2)n1`
Result: 162 to 163 °C

Request: Return melting point for the following molecule: `O=c1[nH]c2ccc(OCCCCN3CCC(c4cccc(Cl)c4Cl)CC3)cc2[nH]1`
Result: 180 to 182 °C

Request: Return melting point for the following molecule: `CCOC(=O)c1cn(CC)c2c(F)c(F)c(F)c(C)c2c1=O`
Result: 197 to 198 °C

Request: Give me measured melting point, please, for this molecule: O=S(=O)(c1ccc(-c2ccc(C3COC(c4c(F)cccc4F)=N3)cc2)cc1)C(F)F (stereo unspecified)
Result: 107 to 111 °C

Request: Quote melting point reported for `O=c1[nH]ccc2c1ccc1[nH]cc(CCN(Cc3ccccc3)Cc3ccccc3)c12` please.
Result: 250 to 253 °C

Request: Provide only the value of recorded melting point for `CCOC(=O)c1ncn2c1CN=C(c1ccccc1F)c1cc(I)ccc1-2`
Result: 200 to 202 °C

Now look at this one.
Request: Give the reported value of melting point for this record: COC(=O)C(Cl)Cc1ccc(-n2c(=O)cc(C(F)(F)F)n(C)c2=O)c(F)c1 (stereo unspecified)
Result: 101 to 103 °C

---

measurement_kind: melting point

Sample answers from the record:
Request: Give the reported value of melting point for this record: CC(=O)OC1OCC[C@@H]1NC(=O)[C@H](CC(C)C)NC(=O)[C@H](CC(C)C)NC(=O)c1ccc2c(c1)Nc1ccccc1S2 (stereo not given in full)
Result: 121 to 122 °C

Request: Please supply the value of reported melting point for the item COc1cccc(C23CCCC(C2)N(C)C3=O)c1 (stereo not given)
Result: 68 to 70 °C

Request: Give a short answer stating reported melting point for `Nc1ccc2c(c1)COc1cc(Nc3ccc(F)cc3F)ccc1C2=O` .
Result: 184 to 193 °C

Request: Write down melting point measured for item `Fc1ccc(-c2cn([C@H]3CN4CCC3CC4)nn2)cc1`
Result: 139 °C

New cases:
Request: Please supply the value of reported melting point for the item CCCCNC(=O)Oc1ccc(C(O)(CC)c2cccc(C(F)(F)F)c2)cc1 (stereo not given)
Result: 99 to 100 °C

Request: Please give measured melting point of the following entry: CNc1nc(Nc2ccc(S(C)=O)cc2)ncc1[N+](=O)[O-] (stereo not given)
Result: 288 °C

Request: Supply recorded melting point for CN1C(=O)C(c2cccc(-c3cccnc3F)c2)(c2cc(C=O)n(CCF)c2)N=C1N (stereo not given) here.
Result: 218 to 221 °C

---

Recorded measurements of melting point, one per entry

Request: State its melting point: COC(=O)C1Oc2ccccc2Cc2cccc(Cl)c2O1 (stereo unspecified)
Result: 107 to 108 °C

Request: Look up melting point of `CCOC(=O)c1cnn(-c2ccc(Oc3ccc(C)cc3O)cc2)c1` and report it.
Result: 122 to 123 °C

Request: Give the value of melting point reported for the following: `CC(C)c1nc(CN(C)C(=O)N[C@H](C(=O)N[C@@H](Cc2ccccc2)C[C@H](O)[C@H](Cc2ccccc2)NC(=O)OCc2cnco2)C(C)C)cs1`
Result: 59 to 61 °C

Request: Give reported melting point value for COC(C)c1cccc2oc(C(=O)O)c(C)c12 (stereo unspecified)
Result: 113 to 115 °C

Request: Identify melting point associated with the compound CC1CCCN1c1ccc(C#N)c2occc12 (stereo unspecified)
Result: 82 to 83 °C

Request: State, in one line, measured melting point of C#CC(O)(CO)C(O)c1ncnc2c1ncn2Cc1ccc2c(c1)Nc1nccnc1S2 (stereo unspecified)
Result: 79 to 84 °C

Request: Give me measured melting point, please, for this compound: O=C1c2c(O)ccc(O)c2C(=O)c2c(NCCN3CCCCC3CO)ccc(NCCN3CCCCC3CO)c21 (stereo unspecified)
Result: 208 to 210 °C

Request: Check the records and state melting point for `N#CC1(N2CCCCC2)CCCCC1`
Result: 66 to 68 °C

Request: # return recorded melting point for input `CCCN(CCC)C(=O)Cn1c(=O)[nH]c2cnc(-c3ccc(Cl)cc3)nc21`
Result: 177 to 178 °C

Request: Supply melting point value. Item: COc1ccc(CC(CS)C(=O)Nc2cccc(C(=O)O)c2)cc1 (stereo unspecified)
Result: 184 to 185 °C

Request: Please indicate melting point recorded for `COc1ccccc1Oc1c(Cl)nc(-c2ccccn2)nc1NS(=O)(=O)c1ccc(C(C)(C)C)cc1`
Result: 122 to 123 °C

Request: Recall and state the measured melting point for `COc1ccc(N2CCOCC2)c2sc(C(=O)O)nc12` .
Result: 99 to 100 °C

Request: For `COc1cc(Nc2c(C#N)cnc3sc(C)cc23)c(Cl)cc1Cl` , write its melting point.
Result: 179 to 181 °C

Request: State its melting point: `COC(=O)CCCc1cc2nc(Cl)ccc2n1S(=O)(=O)c1cc(Cl)ccc1Cl`
Result: 95 to 105 °C

Request: Look up and report measured melting point for this entry: `Cn1cc(C(=O)NCc2ccc(Cl)cc2)c(=O)c2cc(CCCO)cc(OCCO)c21`
Result: 175 to 179 °C

Request: Could you please provide reported melting point for `Cc1cc(Oc2ccccc2)c(S(C)(=O)=O)cc1C(=O)O` ? Thanks!
Result: 195 °C

Request: Give a short answer stating reported melting point for `O=C1Nc2cc(CN3CC=C(c4ccc(Cl)cc4)CC3)cnc2N2CCC[C@@H]12` .
Result: 234 to 235 °C
